Where these numbers come from: paper PMC5261807

Biological target: T1, Bdf1 bromodomain 1 (GST-tagged, WT) (Saccharomyces cerevisiae (strain ATCC …, UniProt P35817))
T1 chain: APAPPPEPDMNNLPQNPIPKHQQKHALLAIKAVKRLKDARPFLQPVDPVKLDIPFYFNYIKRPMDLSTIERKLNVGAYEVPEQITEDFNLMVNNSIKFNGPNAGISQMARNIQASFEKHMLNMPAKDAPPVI
Test: histone peptide array probed with recombinant GST-bromodomain, signal normalised to myc peptide control
Non-standard residues stand in square brackets, D forms with d. Primed or numbered codes have the meaning given here. No end group written: not given here. Me2a″ = asymmetric dimethylarginine (Rme2a); Arg(Me2a) = CN(C)C(=N)NCCC[C@H](N)C(=O)O; pT = C[C@@H](OP(=O)(O)O)[C@H](N)C(=O)O; pS = N[C@@H](COP(=O)(O)O)C(=O)O; Lys(Me) = CNCCCC[C@H](N)C(=O)O
endpoint: binding score

A[Arg(Me2a)]T[Lys(Me)]QTARK(Ac)STGGKAPRKQ: 0.00699

I = ARTKQTA[Arg(Me2a)]K(Ac)S[pT]GGKAPRKQ
II = PDPAK(Ac)SAPAPKK(Ac)GSKKAVT [H2B 1-19]
Enquiry: Identify the item whose binding score is the smaller number: I or II Your answer should be the label attached to the chosen record.
Return: II

I = ARTKQTARKSTGGKAPRKQ (A R T Kme2 Q T A Rme2a Kme2 S T G G K A P R K Q)
II = PRKQLATKAAR(Me2a″)K(Ac)[pS]APATGG [H3 16-35]
Enquiry: Name the one with the greater binding score value, either I or II as given. Your answer should be the label attached to the chosen record.
Return: II
